Listed here are compounds together with their documented EC50.
- tgt: Gal4-RORγ-LBD (Homo sapiens)
- Construct: expressed in transfected cells; host or cells: HEK-293 cells (pcDNA3.1neo plasmid)
- Sequence (P51449 269-508 limits assumed): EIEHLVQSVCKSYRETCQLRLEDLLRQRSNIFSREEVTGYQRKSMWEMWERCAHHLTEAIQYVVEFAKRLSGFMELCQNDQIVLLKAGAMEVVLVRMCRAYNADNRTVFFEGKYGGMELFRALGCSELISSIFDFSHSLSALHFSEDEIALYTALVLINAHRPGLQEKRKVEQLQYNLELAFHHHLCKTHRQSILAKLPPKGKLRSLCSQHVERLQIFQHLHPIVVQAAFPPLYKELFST
- test-protocol: Gal4-RORγ Luciferase Reporter Assay in HEK-293T Cells
- Format: cell-based
- conditions: HEK-293 cells, 2 μM ursolic acid
reported-metric: EC50

>>> recorded_result("COc1cc(F)c(F)c(-c2ccc3c(c2)N(S(=O)(=O)c2cccc(C(F)(F)F)c2)C[C@H](CC2(C(=O)O)CCOCC2)O3)c1 [Compound 78U]")
"< 500 nM"
>>> recorded_result("CC[C@@H](C[C@H]1CN(S(=O)(=O)c2cccc(C(F)(F)F)c2)c2cc(-c3cc(F)cc(F)c3Cl)ccc2O1)C(=O)O [Compound 46G]")
"< 500 nM"
>>> recorded_result("CC(C)(O[C@@H]1Cc2ccc(-c3cc(F)cc(OC(F)F)c3)cc2N(S(=O)(=O)c2cccc(C(F)(F)F)c2)C1)C(=O)O [Compound 83D]")
"500 to 5000 nM"
